Provide the recorded IC50 for the entries that follow.
Molecular target: KRAS-G2C/SOS1 (Homo sapiens, UniProt P01116, G12C)
Construct: Tag2 (identity not disclosed)
Sequence (P01116 1-188 isoform P01116-2 G12C): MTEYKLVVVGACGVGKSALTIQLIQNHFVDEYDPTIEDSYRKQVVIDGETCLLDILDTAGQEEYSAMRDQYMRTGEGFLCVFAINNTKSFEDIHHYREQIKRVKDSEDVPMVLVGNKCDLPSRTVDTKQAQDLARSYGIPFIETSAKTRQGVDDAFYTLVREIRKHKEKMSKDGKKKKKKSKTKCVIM
Experiment: KRAS-G12C/SOS1 binding experiment (HTRF)
Details: Tag2-KRAS-G12C protein and Tag1-SOS protein
Description: […] The ratio of […] and donor excitation signals for each single well was calculated using the formula ratio=665 nm signal value/620 nm signal value×104. […] IC50 values were calculated by sigmoidal dose-response curve fitting.

In the examples that follow, each entry is paired with its recorded IC50.
The recorded IC50 for entry "C=C(F)C(=O)N1CCN(c2cc(OC[C@@H]3CCCN3C)nc3nc(-c4c(O)cccc4F)c(F)cc23)[C@H](C)C1" equals > 500 nM

The recorded IC50 for entry "C=CC(=O)N1CCN(c2cc(OC[C@@H]3CCCN3C)nc3nc(-c4c(O)cccc4F)c(F)cc23)C[C@@H]1CC#N" equals > 500 nM

The recorded IC50 for entry "C=CC(=O)N1CCN(c2cc(OC[C@@H]3CCCN3C)nc3nc(-c4c(O)cccc4F)ccc23)[C@H](C)C1" equals > 500 nM

The recorded IC50 for entry "C=CC(=O)N1CCN(c2cc(OC[C@@H]3CCCN3C)nc3nc(-c4cccc5cccc(F)c45)c(F)cc23)[C@H](C)C1" equals < 50 nM

The recorded IC50 for entry "C=C(F)C(=O)N1CCN(c2cc(OC[C@@H]3CCCN3C)nc3nc(-c4c(O)cccc4F)c(F)cc23)C[C@@H]1CC#N" equals > 500 nM

--- query ---
The recorded IC50 for entry "C=CC(=O)N1C2CCC1CN(c1cc(OC[C@@]34CCCN3C[C@H](F)C4)nc3nc(-c4cccc5cccc(F)c45)c(F)cc13)C2" equals < 50 nM
